Target: D(4) dopamine receptor (Rattus norvegicus, UniProt P30729)
Sequence (P30729 whole entry): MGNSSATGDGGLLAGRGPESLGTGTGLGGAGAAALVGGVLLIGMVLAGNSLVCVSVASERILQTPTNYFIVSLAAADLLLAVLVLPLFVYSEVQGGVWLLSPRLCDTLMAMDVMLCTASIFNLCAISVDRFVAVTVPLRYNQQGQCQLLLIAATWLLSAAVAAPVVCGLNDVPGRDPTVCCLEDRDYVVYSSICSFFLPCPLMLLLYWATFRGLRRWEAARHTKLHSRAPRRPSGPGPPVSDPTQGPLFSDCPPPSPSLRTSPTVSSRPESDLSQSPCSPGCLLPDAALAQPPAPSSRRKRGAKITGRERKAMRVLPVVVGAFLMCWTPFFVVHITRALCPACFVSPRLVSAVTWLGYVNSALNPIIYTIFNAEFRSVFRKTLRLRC
Assign labels as follows, please: TRUE for Ki below 300 nM; FALSE for Ki equal to or exceeding 300 nM.

COMPOUND	CAT
O=C(CCCN1CCc2ccccc2CC1)c1ccc(Cl)cc1	TRUE
O=C1c2ccccc2CC1CCN1CCc2ccccc2C1 (stereo not drawn)	FALSE
O=C(CCCN1CCCc2ccccc2C1)c1ccc(Cl)cc1	FALSE
O=C1Cc2cc(C(=O)CCCN3CCc4ccccc4C3)ccc2N1	FALSE
CC1(C)CC(=O)N(CCCCN2Cc3ccccc3C2)C(=O)C1	FALSE
C1=C(CCN2CCc3ccccc3C2)Cc2ccccc21	TRUE
O=C1c2ccc(F)cc2CC1CCN1CCc2ccccc2C1 (stereo not drawn)	TRUE
Clc1ccc2sc(CCCCN3CCC4CCCCC4C3)nc2c1 (stereo not drawn)	TRUE

Origin of values: ChEMBL document CHEMBL3862017
